# credit: paper PMC12811658

assayRemarks: Pharmacokinetics of iDeg-6
Assay type: in vivo, male C57Bl/6 mice
testContext: male, C57Bl/6, mouse, plasma; 1 mg/kg IV; read-out: Vz
Description: In vivo pharmacology characterization was carried out at Pharmacelsus GmbH, Saarbrücken, Germany, using male C57Bl/6 mice. Food and water was provided ad libitum before and during each study. All experimental procedures were approved by and conducted in accordance with the regulations of the local Animal Welfare Authorities. Plasma samples were analysed by liquid chromatography tandem-mass spectrometry using a generic method. Pharmacokinetic parameters were calculated by non-compartmental analysis. […]
outcomeMeasure: Vd (L/kg)
Just the number in L/kg, nothing appended.

Just so you know, measured Vd for C#Cc1ccc(NC(=O)OC[C@]23CN(S(=O)(=O)c4ccc(C(C)(C)C)cc4C)C[C@H]2C[C@H]2C[C@@H]3C2(C)C)cc1 [98 (iDeg-6)] came out at 3.82

====

Give measured IC50 for each item. Keep answers brief.
tgt: recombinant human IDO1 (Homo sapiens, UniProt P14902)
Construct: The GST-tag of IDO1 was removed to obtain untagged full-length IDO1l using PreScission protease; GST (N, cleaved yes); made in house; own inference
assayRemarks: IDO1 enzymatic assay in vitro
Format: biochemical
testContext: pre-incubation 37 °C 45 min; determined if inhibition at 14 µM higher than 50%
Just the number in µM, nothing appended.

Fill in: recombinant human IDO1 (Homo sapiens, UniProt P14902) IC50 for CC(C)(C(=O)O)c1ccc(S(=O)(=O)N2C[C@H]3C[C@H]4C[C@H](C4(C)C)[C@@]3(COC(=O)Nc3ccc(I)cc3)C2)c(Cl)c1 = 0.19

Fill in: recombinant human IDO1 (Homo sapiens, UniProt P14902) IC50 for COc1cc(C(C)(C)C(=O)O)ccc1S(=O)(=O)N1C[C@H]2C[C@H]3C[C@H](C3(C)C)[C@@]2(COC(=O)Nc2ccc(I)cc2)C1 = 0.67

Fill in: recombinant human IDO1 (Homo sapiens, UniProt P14902) IC50 for CC(C)(CC(=O)O)c1ccc(S(=O)(=O)N2C[C@H]3C[C@H]4C[C@H](C4(C)C)[C@@]3(COC(=O)Nc3ccc(I)cc3)C2)cc1 = 1.9

Fill in: recombinant human IDO1 (Homo sapiens, UniProt P14902) IC50 for C#Cc1ccc(NC(=O)OC[C@]23CN(S(=O)(=O)c4ccc(C(C)(C)C)cc4CC)C[C@H]2C[C@H]2C[C@@H]3C2(C)C)cc1 = 4

Fill in: recombinant human IDO1 (Homo sapiens, UniProt P14902) IC50 for C#Cc1ccc(NC(=O)OC[C@]23CN(S(=O)(=O)c4ccc(C(C)(C)C(=O)O)cc4)C[C@H]2C[C@H]2C[C@@H]3C2(C)C)cc1 = 0.31

Fill in: recombinant human IDO1 (Homo sapiens, UniProt P14902) IC50 for Cc1cc(C(C)(C)C(=O)O)ccc1S(=O)(=O)N1C[C@H]2C[C@H]3C[C@H](C3(C)C)[C@@]2(COC(=O)Nc2ccc(I)cc2)C1 = 0.11

Fill in: recombinant human IDO1 (Homo sapiens, UniProt P14902) IC50 for CC(C)(C(=O)O)c1ccc(S(=O)(=O)N2C[C@H]3C[C@H]4C[C@H](C4(C)C)[C@@]3(COC(=O)Nc3ccc(I)cc3)C2)cc1 = 0.82

Fill in: recombinant human IDO1 (Homo sapiens, UniProt P14902) IC50 for C#Cc1ccc(NC(=O)OC[C@]23CN(S(=O)(=O)c4ccc(C(C)(C)C(=O)O)cc4C)C[C@H]2C[C@H]2C[C@@H]3C2(C)C)cc1 = 0.089

====

Give measured Dmax at 0.1 µM for each item. Keep answers brief.
tgt: IDO1 protein levels in BxPC3 cells (Homo sapiens, UniProt P14902)
Sequence (P14902 whole entry): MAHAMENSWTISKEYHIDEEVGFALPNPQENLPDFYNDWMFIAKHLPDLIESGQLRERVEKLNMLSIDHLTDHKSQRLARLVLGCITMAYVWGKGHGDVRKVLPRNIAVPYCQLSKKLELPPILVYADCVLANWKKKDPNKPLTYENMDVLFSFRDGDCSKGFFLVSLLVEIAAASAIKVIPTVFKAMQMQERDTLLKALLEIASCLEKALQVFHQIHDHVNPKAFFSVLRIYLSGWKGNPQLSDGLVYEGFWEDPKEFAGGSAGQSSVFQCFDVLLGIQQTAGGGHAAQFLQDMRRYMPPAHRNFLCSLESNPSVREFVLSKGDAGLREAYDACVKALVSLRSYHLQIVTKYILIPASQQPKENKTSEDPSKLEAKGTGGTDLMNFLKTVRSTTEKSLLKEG
assayRemarks: IDO1 immunoblotting (degradation)
Assay type: cell-based
Set-up: endogenous in cells; host or cells: BxPC3 (DSMZ), IFN-γ stimulated
testContext: BXPC-3; @100 nM, BxPC3 cells
Just the number in %, nothing appended.

Just so you know, measured Dmax at 0.1 µM for C#Cc1ccc(NC(=O)OC[C@]23CN(S(=O)(=O)c4ccc(C(C)(C)C)cc4CC)C[C@H]2C[C@H]2C[C@@H]3C2(C)C)cc1 came out at 75

Just so you know, measured Dmax at 0.1 µM for C#Cc1ccc(NC(=O)OC[C@]23CN(S(=O)(=O)c4ccc(C(C)(C)C(=O)O)cc4C)C[C@H]2C[C@H]2C[C@@H]3C2(C)C)cc1 came out at 21

====

tgt: IDO1 protein levels in BxPC3 cells (Homo sapiens)
assayRemarks: IDO1 immunoblotting (degradation)
Format: cell-based
Parameters: endogenous in cells; host or cells: BxPC3 (DSMZ), IFN-γ stimulated
testContext: 10 nM, 24 h incubation; mean ± SD
Give measured Max. degradation (%) for each item. Keep answers brief.

Just so you know, measured Max. degradation (%) for CC(C)(C(=O)O)c1ccc(S(=O)(=O)N2C[C@H]3C[C@H]4C[C@H](C4(C)C)[C@@]3(COC(=O)Nc3ccc(I)cc3)C2)c(Cl)c1 came out at 15 ± 2 (3) %

Just so you know, measured Max. degradation (%) for C#Cc1ccc(NC(=O)OC[C@]23CN(S(=O)(=O)c4ccc(C(C)(C)C)cc4C4CC4)C[C@H]2C[C@H]2C[C@@H]3C2(C)C)cc1 came out at 61 ± 2 (3) %

Just so you know, measured Max. degradation (%) for C#Cc1ccc(NC(=O)OC[C@]23CN(S(=O)(=O)c4ccc(C(C)(C)C(=O)O)cc4C)C[C@H]2C[C@H]2C[C@@H]3C2(C)C)cc1 came out at 20 ± 9 (9) %

Just so you know, measured Max. degradation (%) for CC(C)(C)c1ccc(S(=O)(=O)N2C[C@H]3C[C@H]4C[C@H](C4(C)C)[C@@]3(COC(=O)Nc3ccc(I)cc3)C2)c(Br)c1 came out at 24 ± 15 (3) %

Just so you know, measured Max. degradation (%) for Cc1cc(C(C)(C)C(=O)O)ccc1S(=O)(=O)N1C[C@H]2C[C@H]3C[C@H](C3(C)C)[C@@]2(COC(=O)Nc2ccc(I)cc2)C1 came out at 11 ± 24 (3) %

Just so you know, measured Max. degradation (%) for CC(C)(CC(=O)O)c1ccc(S(=O)(=O)N2C[C@H]3C[C@H]4C[C@H](C4(C)C)[C@@]3(COC(=O)Nc3ccc(I)cc3)C2)cc1 came out at 27 ± 5 (3) %

====

tgt: recombinant human IDO1 (Homo sapiens)
Construct: The GST-tag of IDO1 was removed to obtain untagged full-length IDO1l using PreScission protease; GST (N, cleaved yes); made in house; own inference
assayRemarks: IDO1 enzymatic assay in vitro
Format: biochemical
testContext: up to 14 µM, incubated with IDO1 for 45 min

- molecule: "CCc1cc(C(C)(C)C)ccc1S(=O)(=O)N1C[C@H]2C[C@H]3C[C@H](C3(C)C)[C@@]2(COC(=O)Nc2ccc(I)cc2)C1 [compound 80]"
  in vitro IDO1 inhibition (in words): "weak inhibitors"
- molecule: "Cc1cc(C(C)(C)C)ccc1S(=O)(=O)N1C[C@H]2C[C@H]3C[C@H](C3(C)C)[C@@]2(COC(=O)Nc2ccc(I)cc2)C1 [79 (iDeg-4)]"
  in vitro IDO1 inhibition (in words): "weak inhibitors"
- molecule: "CC(C)(C)c1ccc(S(=O)(=O)N2C[C@H]3C[C@H]4C[C@H](C4(C)C)[C@@]3(COC(=O)Nc3ccc(I)cc3)C2)c(C2CC2)c1 [compound 81]"
  in vitro IDO1 inhibition (in words): "weak inhibitors"

====

Give measured Kd for each item. Keep answers brief.
tgt: recombinant full-length human IDO1 (Homo sapiens, UniProt P14902)
Construct: The GST-tag of IDO1 was removed to obtain untagged full-length IDO1l using PreScission protease; GST (N, cleaved yes); made in house; own inference
assayRemarks: Isothermal titration calorimetry (ITC)
Assay type: binding
testContext: 25 °C, one-site model
Just the number in nM, nothing appended.

Just so you know, measured Kd for C#Cc1ccc(NC(=O)OC[C@]23CN(S(=O)(=O)c4ccc(C(C)(C)C(=O)O)cc4C)C[C@H]2C[C@H]2C[C@@H]3C2(C)C)cc1 came out at 220

Just so you know, measured Kd for C#Cc1ccc(NC(=O)OC[C@]23CN(S(=O)(=O)c4ccc(C(C)(C)C)cc4CC)C[C@H]2C[C@H]2C[C@@H]3C2(C)C)cc1 came out at 940

Just so you know, measured Kd for C#Cc1ccc(NC(=O)OC[C@]23CN(S(=O)(=O)c4ccc(C(C)(C)C(=O)O)cc4)C[C@H]2C[C@H]2C[C@@H]3C2(C)C)cc1 came out at 120

====

Give measured Max. degradation (%) for each item. Keep answers brief.
tgt: IDO1 protein levels in BxPC3 cells (Homo sapiens, UniProt P14902)
assayRemarks: IDO1 immunoblotting (degradation)
Format: cell-based
Set-up: endogenous in cells; host or cells: BxPC3 (DSMZ), IFN-γ stimulated
testContext: 100 nM, 24 h incubation; mean ± SD

Just so you know, measured Max. degradation (%) for Cc1cc(C(C)(C)C)ccc1S(=O)(=O)N1C[C@H]2C[C@H]3C[C@H](C3(C)C)[C@@]2(COC(=O)Nc2ccc(I)cc2)C1 [79 (iDeg-4)] came out at 65 ± 10 (14) %

Just so you know, measured Max. degradation (%) for C#Cc1ccc(NC(=O)OC[C@]23CN(S(=O)(=O)c4ccc(C(C)(C)C(=O)O)cc4)C[C@H]2C[C@H]2C[C@@H]3C2(C)C)cc1 [101 (iDeg-7)] came out at 54 ± 8 (5) %

Just so you know, measured Max. degradation (%) for CC(C)(C(=O)O)c1ccc(S(=O)(=O)N2C[C@H]3C[C@H]4C[C@H](C4(C)C)[C@@]3(COC(=O)Nc3ccc(I)cc3)C2)cc1 [92 (iDeg-5)] came out at 46 ± 21 (5) %

Just so you know, measured Max. degradation (%) for COc1cc(C(C)(C)C)ccc1S(=O)(=O)N1C[C@H]2C[C@H]3C[C@H](C3(C)C)[C@@]2(COC(=O)Nc2ccc(I)cc2)C1 [compound 82] came out at 59 ± 16 (5) %

Just so you know, measured Max. degradation (%) for C#Cc1ccc(NC(=O)OC[C@]23CN(S(=O)(=O)c4ccc(C(C)(C)C)cc4C)C[C@H]2C[C@H]2C[C@@H]3C2(C)C)cc1 [98 (iDeg-6)] came out at 74 ± 13 (5) %

Just so you know, measured Max. degradation (%) for C#Cc1ccc(NC(=O)OC[C@]23CN(S(=O)(=O)c4ccc(C(C)(C)C)cc4C4CC4)C[C@H]2C[C@H]2C[C@@H]3C2(C)C)cc1 [compound 100] came out at 71 ± 11 (3) %

Just so you know, measured Max. degradation (%) for CC(C)(C)c1ccc(S(=O)(=O)N2C[C@H]3C[C@H]4C[C@H](C4(C)C)[C@@]3(COC(=O)Nc3ccc(I)cc3)C2)c(Br)c1 [compound 83] came out at 56 ± 4 (3) %

Just so you know, measured Max. degradation (%) for CC(C)(C)c1ccc(S(=O)(=O)N2C[C@H]3C[C@H]4C[C@H](C4(C)C)[C@@]3(COC(=O)Nc3ccc(I)cc3)C2)c(I)c1 [compound 84] came out at 55 ± 5 (3) %

Just so you know, measured Max. degradation (%) for C#Cc1ccc(NC(=O)OC[C@]23CN(S(=O)(=O)c4ccc(C(C)(C)C(=O)O)cc4C)C[C@H]2C[C@H]2C[C@@H]3C2(C)C)cc1 [102 (iDeg-9)] came out at 21 ± 20 (9) %

Just so you know, measured Max. degradation (%) for C#Cc1ccc(NC(=O)OC[C@]23CN(S(=O)(=O)c4ccc(C(C)(C)C)cc4CC)C[C@H]2C[C@H]2C[C@@H]3C2(C)C)cc1 [99 (iDeg-8)] came out at 75 ± 7 (3) %

Just so you know, measured Max. degradation (%) for CC(C)(CC(=O)O)c1ccc(S(=O)(=O)N2C[C@H]3C[C@H]4C[C@H](C4(C)C)[C@@]3(COC(=O)Nc3ccc(I)cc3)C2)cc1 [compound 91] came out at 36 ± 2 (3) %

Just so you know, measured Max. degradation (%) for C#Cc1ccc(NC(=O)OC[C@]23CN(S(=O)(=O)c4ccc(C(C)(C)C)cc4)C[C@H]2C[C@H]2C[C@@H]3C2(C)C)cc1 [43 (iDeg-3)] came out at 62 ± 10 (5) %
